System: JAK3(JH1domain-catalytic);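 note: KINOMEscan kinase panel screen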
Conditions: concentration: 1 μM, replicates: in singlicate; n = 1
Experimental Endpoint: %Inh (%)
The figure you give is taken to be in %; do not add the unit.

Example results:
Qu. Name the recorded %Inh of the compound listed here: "Cc1ccc(NC(=O)c2cccc(N3CCCCC3)c2)cc1-c1ccc(C(=O)NCC2CC2)cc1"
Ans. 0

Qu. # return recorded %Inh for input "CCn1c(-c2nonc2N)nc2c(-c3ccccc3)ncc(OCCCN)c21.O=C(O)C(F)(F)F.O=C(O)C(F)(F)F"
Ans. 0

Qu. Fill in %Inh for record "COc1ccc(C2=C(Nc3cccc(O)c3)C(=O)NC2=O)cc1"
Ans. 0

Qu. Indicate the recorded %Inh value for this compound: "Fc1cc(Cl)ccc1Nc1ccnc2cc(-c3ccc(CN4CCSCC4)o3)ccc12"
Ans. 0

Qu. Give the reported %Inh for this compound. "CN(C)CCOc1ccc(-c2cc(-c3ccc(Cl)c(O)c3)c(-c3ccncc3)[nH]2)cc1.Cl.Cl"
Ans. 10

Continuing:
Qu. Identify %Inh associated with the compound "O=C(Nc1n[nH]c2nc(-c3ccccc3O)ccc12)C1CC1"
Ans. 0

Qu. Specify %Inh for "COc1cccc(-c2nc(-c3ccccc3)[nH]c2-c2ccncc2)c1" and stop.
Ans. 0

Qu. Entry "CN(c1ccc(NC(=O)N2CCN(CCCN3CCOCC3)CC2)cc1)c1ccnc(Nc2ccc(CS(C)(=O)=O)cc2)n1.Cl" needs its %Inh filled in; supply it.
Ans. 14

Qu. Assign %Inh to the following record: "COc1cccc2c(-c3ccncc3)c(-c3ccc(F)cc3)nn12"
Ans. 0

Qu. Note %Inh for the compound shown: "Cl.O=C(Nc1ccc(Oc2ccc3[nH]c(NC(=O)c4ccco4)nc3c2)cc1)Nc1cc(C(F)(F)F)ccc1F"
Ans. 0

Qu. Indicate its recorded %Inh; the compound in question is "O=C(Nc1n[nH]c2nc(-c3ccccc3)ccc12)C1CC1"
Ans. 51

Qu. Supply %Inh value. Item: "Cc1ccc(NC(=O)c2ccnc(N3CCCCC3)c2)cc1-c1ccc(C(=O)NCC2CC2)cc1"
Ans. 95.2

Qu. Identify measured %Inh corresponding to "N#CC1(c2cccc(C(=O)Nc3cccc(Oc4ccc5nc(NC(=O)C6CC6)sc5n4)c3)c2)CC1"
Ans. 0

Qu. // fetch %Inh given entry "O=C(Nc1c(F)cccc1F)c1cc(C(=O)c2ccccc2F)c[nH]1"
Ans. 0

Qu. Please look at this compound and report its %Inh: "O=C(O)C(F)(F)F.O=c1[nH]ccc2nc(N[C@@H]3CCNC3)nc(Nc3ccc4c(c3)S(=O)(=O)CC4)c12"
Ans. 100

Qu. Name the recorded %Inh of the item "N#Cc1cnc2cc(-c3cnc(CNCCN4CCOCC4)s3)ccc2c1Nc1ccc(Oc2ccccc2)cc1" in your answer.
Ans. 0

Qu. Complete the entry with %Inh for "CCNc1nccc(-c2c(-c3ccc(F)cc3)ncn2C2CCN(C)CC2)n1"
Ans. 0
